- Tested on: SKW3 cells
Each item that follows carries a reported Cellular Toxicity Assay MTT LD50.
observable: Cellular Toxicity Assay MTT LD50

INSERT INTO measurements (compound, observable, experimentalresult) VALUES
  ('C[C@@]1(Cc2ccc(Br)cc2)C(=O)N(c2cc(Cl)cc(Cl)c2)C(=O)N1CCCP(=O)(O)O [Example 223]', 'Cellular Toxicity Assay MTT LD50', '200 to 400 µM'),
  ('CN1C(=O)N(c2cc(Cl)cc(Cl)c2)C(=O)C1(C)Cc1ccc(Br)cc1O (centres unmarked) [Example 248]', 'Cellular Toxicity Assay MTT LD50', '50 to 100 µM'),
  ('Cc1ccc(C[C@@]2(C)NC(=O)N(c3cc(Cl)cc(Cl)c3)C2=O)cc1 [Example 119]', 'Cellular Toxicity Assay MTT LD50', '>400 µM'),
  ('C[C@@H](c1ccccc1)[C@@]1(C)C(=O)N(c2cc(Cl)cc(Cl)c2)C(=O)N1C [Example 270]', 'Cellular Toxicity Assay MTT LD50', '250 to 500 µM'),
  ('C[C@@]1(Cc2ccc(Br)cc2)C(=O)N(c2cc(Cl)cc(Cl)c2)C(=O)N1CCCC[N+](C)(C)C [Example 253]', 'Cellular Toxicity Assay MTT LD50', '100 to 200 µM'),
  ('CC1(Cc2ccccc2)NC(=O)N(c2cc(C(F)(F)F)cc(C(F)(F)F)c2)C1=O (centres unmarked) [Example 16]', 'Cellular Toxicity Assay MTT LD50', '63 to 125 µM'),
  ('C[C@@]1(Cc2ccc(Br)cc2)C(=O)N(c2cc(Cl)cc(Cl)c2)C(=O)N1CCC[N+](C)(C)C [Example 254]', 'Cellular Toxicity Assay MTT LD50', '100 to 200 µM'),
  ('CN1C(=O)N(c2cc(Cl)cc(Cl)c2)C(=O)[C@@]1(C)Cc1ccc(-c2ccccc2)cc1 [Example 182]', 'Cellular Toxicity Assay MTT LD50', '200 to 400 µM');
